- Tested on: Escherichia coli
- PROTOCOL_DESCRIPTION: Antibacterial activity against Escherichia coli ATCC 25922
- Format: functional
RECORDED_METRIC: MIC

Below, 3 molecules whose answers are already recorded.
Query: If you can, please state the reported MIC value of CCCCCCCCN1CCN(c2ccc3c4c(cccc24)C(=O)N(CC(O)Cn2c([N+](=O)[O-])cnc2C)C3=O)CC1 (stereo not drawn) .
Reply: 13 to 1020 µM

Query: What would you report for NC1CCN(c2c(F)cc3c(=O)c(C(=O)O)cn(C4CC4)c3c2Cl)C1 (stereo not drawn) ?
Reply: 5 to 88 µM

Query: What would you report for Cc1ncc([N+](=O)[O-])n1CC(O)CN1C(=O)c2cccc3c(N4CCN(CC#N)CC4)ccc(c23)C1=O (stereo not drawn) ?
Reply: 13 to 1020 µM

For each of the molecules below, note its MIC.
1. CCN1CCN(c2ccc3c4c(cccc24)C(=O)N(CC(O)Cn2c([N+](=O)[O-])cnc2C)C3=O)CC1 (stereo not drawn)
2. Cc1ncc([N+](=O)[O-])n1CC(O)CN1C(=O)c2cccc3c(N4CCNCC4)ccc(c23)C1=O (stereo not drawn)
3. CCCCN1CCN(c2ccc3c4c(cccc24)C(=O)N(CC(O)Cn2c([N+](=O)[O-])cnc2C)C3=O)CC1 (stereo not drawn)
4. CCCCCCCCCCN1CCN(c2ccc3c4c(cccc24)C(=O)N(CC(O)Cn2c([N+](=O)[O-])cnc2C)C3=O)CC1 (stereo not drawn)
5. C=CCN1CCN(c2ccc3c4c(cccc24)C(=O)N(CC(O)Cn2c([N+](=O)[O-])cnc2C)C3=O)CC1 (stereo not drawn)

Reply:
1. 13 to 1020 µM
2. 69 to 1140 µM
3. 13 to 1020 µM
4. 13 to 210 µM
5. 13 to 1020 µM

---

Assign MIC to each entry below.
- System: Pseudomonas aeruginosa
- PROTOCOL_DESCRIPTION: Antibacterial activity against Pseudomonas aeruginosa
- Assay type: functional

Below, 4 molecules whose answers are already recorded.
Query: If you can, please state the reported MIC value of CC(=O)N1N=C(Cn2c([N+](=O)[O-])cnc2C)OC1(C)c1ccc([N+](=O)[O-])cc1 (stereo not drawn) .
Reply: 0.25 to 0.5 µg/mL

Query: What would you report for CCCCN1CCN(c2ccc3c4c(cccc24)C(=O)N(CC(O)Cn2c([N+](=O)[O-])cnc2C)C3=O)CC1 (stereo not drawn) ?
Reply: 13 to 1020 µM

Query: What would you report for CCCCCCCCN1CCN(c2ccc3c4c(cccc24)C(=O)N(CC(O)Cn2c([N+](=O)[O-])cnc2C)C3=O)CC1 (stereo not drawn) ?
Reply: 13 to 1020 µM

Query: What would you report for CCCCCCN1CCN(c2ccc3c4c(cccc24)C(=O)N(CC(O)Cn2c([N+](=O)[O-])cnc2C)C3=O)CC1 (stereo not drawn) ?
Reply: 13 to 1020 µM

For each of the molecules below, note its MIC.
1. O=C(N[C@H](CO)[C@H](O)c1ccc([N+](=O)[O-])cc1)C(Cl)Cl [CHLORAMPHENICOL]
2. Cc1ncc([N+](=O)[O-])n1CC(O)CN1C(=O)c2cccc3c(N4CCNCC4)ccc(c23)C1=O (stereo not drawn)

Reply:
1. 7.8 to 250 µg/mL
2. 69 to 1140 µM

For each of the molecules below, note its MIC.
1. Cc1ncc([N+](=O)[O-])n1CCN1C(=O)S/C(=C\c2cccs2)C1=O
2. CC(=O)N(Cc1ccc(Cl)cc1Cl)c1ccc(S(=O)(=O)NCCCn2c([N+](=O)[O-])cnc2C)cc1

Reply:
1: 31.2 to 500 µg/mL; 2: 16 to 64 µg/mL

---

- Tested on: Escherichia coli
- PROTOCOL_DESCRIPTION: Antibacterial activity against Escherichia coli ATCC 25922
- Format: functional
Assign MIC to each entry below.

Below, 3 compounds whose answers are already recorded.
Query: // fetch Escherichia coli MIC for Cc1ncc([N+](=O)[O-])n1CC(O)CN1C(=O)c2cccc3c(N4CCOCC4)ccc(c23)C1=O (centres undefined)
Reply: 69 to 1140 µM

Query: What would you report for Cc1ncc([N+](=O)[O-])n1CC(O)CN1C(=O)c2cccc3c(N4CCCCC4)ccc(c23)C1=O (centres undefined) ?
Reply: 69 to 1140 µM

Query: What would you report for C#CCN1CCN(c2ccc3c4c(cccc24)C(=O)N(CC(O)Cn2c([N+](=O)[O-])cnc2C)C3=O)CC1 (centres undefined) ?
Reply: 13 to 1020 µM

Continue with the compound presented below.
Query: // fetch Escherichia coli MIC for Cc1ncc([N+](=O)[O-])n1CC(O)CN1C(=O)c2cccc3c(N4CCN(CCO)CC4)ccc(c23)C1=O (centres undefined)
Reply: 13 to 1020 µM

---

- System: Pseudomonas aeruginosa
- PROTOCOL_DESCRIPTION: Antibacterial activity against Pseudomonas aeruginosa
- Format: functional
Assign MIC to each entry below.

Query: // fetch Pseudomonas aeruginosa MIC for Cc1ncc([N+](=O)[O-])n1CCN1C(=O)S/C(=C\c2ccco2)C1=O
Reply: 31.2 to 500 µg/mL

Query: What would you report for Cc1ncc([N+](=O)[O-])n1CC(O)CN1C(=O)c2cccc3c(N4CCCCC4)ccc(c23)C1=O (stereo not given) ?
Reply: 69 to 1140 µM

Query: What would you report for NC[C@H]1O[C@H](O[C@H]2[C@H](O)[C@@H](O[C@H]3O[C@H](CO)[C@@H](O)[C@H](N)[C@H]3O)[C@H](N)C[C@@H]2N)[C@H](O)[C@@H](O)[C@@H]1O ?
Reply: 1.56 to 3.12 µg/mL

For each of the compounds below, note its MIC.
1. Cc1ncc([N+](=O)[O-])n1CC(O)CN1C(=O)c2cccc3c(N4CCCC4)ccc(c23)C1=O (stereo not given)
2. CCCCCCCCCCCCN1CCN(c2ccc3c4c(cccc24)C(=O)N(CC(O)Cn2c([N+](=O)[O-])cnc2C)C3=O)CC1 (stereo not given)
3. Cc1ncc([N+](=O)[O-])n1CC(O)CN1C(=O)c2cccc3c(N4CCOCC4)ccc(c23)C1=O (stereo not given)
4. COc1ccc(C2(C)OC(Cn3c([N+](=O)[O-])cnc3C)=NN2C(C)=O)cc1 (stereo not given)

Reply:
["69 to 1140 µM", "13 to 1020 µM", "69 to 1140 µM", "0.25 to 0.5 µg/mL"]

For each of the compounds below, note its MIC.
1. CC(=O)N1N=C(Cn2c([N+](=O)[O-])cnc2C)OC1c1ccc2c(c1)OCO2 (stereo not given)
2. Cc1ncc([N+](=O)[O-])n1CC(O)CN1C(=O)c2cccc3c(N4CCN(CCO)CC4)ccc(c23)C1=O (stereo not given)
3. COc1ccc(C2OC(Cn3c([N+](=O)[O-])cnc3C)=NN2C(C)=O)cc1 (stereo not given)

Reply:
1. 0.25 to 0.5 µg/mL
2. 13 to 1020 µM
3. 0.25 to 0.5 µg/mL
